- testSystem: Nuclear factor NF-kappa-B p105 subunit (Homo sapiens, UniProt P19838)
- Sequence (P19838 1-433 limits assumed): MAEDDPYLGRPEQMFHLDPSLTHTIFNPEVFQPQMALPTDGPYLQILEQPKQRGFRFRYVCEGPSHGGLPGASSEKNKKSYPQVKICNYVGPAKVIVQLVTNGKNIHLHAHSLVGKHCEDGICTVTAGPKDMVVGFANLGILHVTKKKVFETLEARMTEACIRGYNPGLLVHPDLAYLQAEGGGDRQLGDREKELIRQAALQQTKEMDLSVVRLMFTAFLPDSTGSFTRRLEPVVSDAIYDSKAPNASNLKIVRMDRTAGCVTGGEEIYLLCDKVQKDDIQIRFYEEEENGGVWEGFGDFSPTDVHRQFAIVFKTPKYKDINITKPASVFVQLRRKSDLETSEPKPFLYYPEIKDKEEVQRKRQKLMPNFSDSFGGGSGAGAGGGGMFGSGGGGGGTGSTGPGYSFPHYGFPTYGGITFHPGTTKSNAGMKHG
- test: Inhibition of human NF-kappaB p50/DNA interaction using 32P-labeled oligonucleotides as substrate preincubated for 20 mins before substrate addition measured after 20 mins by electrophoretic mobility shift assay
observable: EC50 (µM)

Look over these answered cases.
>  <molecule>
O=c1ccc2c(-c3ccccc3S(=O)(=O)O)c3ccc(O)c(O)c3oc-2c1O

>  <testSystem>
Nuclear factor NF-kappa-B p105 subunit (Homo sapiens, UniProt P19838)

>  <unitLabel>
µM

>  <EC50>
30

$$$$
>  <molecule>
Cc1c(CC(=O)Nc2cccc(C(=O)O)c2)c(=O)oc2cc3oc4c(c3cc12)CCCC4

>  <testSystem>
Nuclear factor NF-kappa-B p105 subunit (Homo sapiens, UniProt P19838)

>  <unitLabel>
µM

>  <EC50>
100

$$$$
>  <molecule>
Cc1oc2cc3oc(=O)c(CC(=O)Nc4cccc(C(=O)O)c4)c(C)c3cc2c1C

>  <testSystem>
Nuclear factor NF-kappa-B p105 subunit (Homo sapiens, UniProt P19838)

>  <unitLabel>
µM

>  <EC50>
700

$$$$
>  <molecule>
Cc1oc2c(C)c3oc(=O)c(CC(=O)NC(Cc4ccccc4)C(=O)O)c(C)c3cc2c1C (racemic)

>  <testSystem>
Nuclear factor NF-kappa-B p105 subunit (Homo sapiens, UniProt P19838)

>  <unitLabel>
µM

>  <EC50>
600

$$$$
>  <molecule>
Cc1c(CCC(=O)Nc2ccc(C(=O)O)cc2)c(=O)oc2c(C)c3occ(C(C)(C)C)c3cc12

>  <testSystem>
Nuclear factor NF-kappa-B p105 subunit (Homo sapiens, UniProt P19838)

>  <unitLabel>
µM

>  <EC50>
40

$$$$

[a] Cc1c(CC(=O)Nc2ccc(C(N)=O)cc2)c(=O)oc2c(C)c3oc4c(c3cc12)CCCC4
[b] Cc1c(CCC(=O)NC(Cc2ccccc2)C(=O)O)c(=O)oc2cc3oc4c(c3cc12)CCCC4 (racemic)
Please indicate which item has the smaller measured EC50: a versus b Answer by stating the label of the chosen item.
b

====

- testSystem: Nuclear factor NF-kappa-B p105 subunit (Homo sapiens)
- test: Inhibition of human NF-kappaB p50/DNA interaction using 32P-labeled oligonucleotides as substrate preincubated for 20 mins before substrate addition measured after 20 mins by electrophoretic mobility shift assay
observable: EC50 (µM)

Look over these answered cases.
>  <molecule>
Cc1c(CC(=O)Nc2cccc(C(=O)O)c2)c(=O)oc2cc3occ(C(C)(C)C)c3cc12

>  <quantitativeResult>
10

$$$$
>  <molecule>
Cc1c(CC(=O)Nc2ccc(C(=O)O)cc2)c(=O)oc2cc3oc4c(c3cc12)CCCC4

>  <quantitativeResult>
10

$$$$
>  <molecule>
Cc1c(CCC(=O)Nc2cccc(C(=O)O)c2)c(=O)oc2c(C)c3oc4c(c3cc12)CCCC4

>  <quantitativeResult>
100

$$$$
>  <molecule>
Cc1c(CC(=O)Nc2ccc(NS(C)(=O)=O)cc2)c(=O)oc2c(C)c3oc4c(c3cc12)CCCC4

>  <quantitativeResult>
700

$$$$
>  <molecule>
Cc1c(CCC(=O)NC(Cc2ccccc2)C(=O)O)c(=O)oc2c(C)c3occ(C(C)(C)C)c3cc12 (racemic)

>  <quantitativeResult>
60

$$$$

[P] Cc1c(CC(=O)NCCCC(=O)O)c(=O)oc2c(C)c3occ(C(C)(C)C)c3cc12
[Q] Cc1c(CCC(=O)Nc2cccc(C(=O)O)c2)c(=O)oc2cc3occ(C(C)(C)C)c3cc12
[R] Cc1c(CCC(=O)Nc2ccc(N)cc2)c(=O)oc2c(C)c3oc4c(c3cc12)CCCC4
[S] Cc1c(CCC(=O)Nc2cccc(C(=O)O)c2)c(=O)oc2cc3oc4c(c3cc12)CCCC4
Could you please order the items by EC50, going from the lowest number to the highest? Your answer should be the labels, listed in the requested order.
Q, S, P, R

All figures here come from ChEMBL document CHEMBL2321870.
